Target: T1, Monkey CD96-3xFlag (cyno-CD96-3xFLAG) (cynomolgus monkey)
T1 construct: Signal peptide marked only by lost underlining; also called cynomolgus CD96
T1 chain: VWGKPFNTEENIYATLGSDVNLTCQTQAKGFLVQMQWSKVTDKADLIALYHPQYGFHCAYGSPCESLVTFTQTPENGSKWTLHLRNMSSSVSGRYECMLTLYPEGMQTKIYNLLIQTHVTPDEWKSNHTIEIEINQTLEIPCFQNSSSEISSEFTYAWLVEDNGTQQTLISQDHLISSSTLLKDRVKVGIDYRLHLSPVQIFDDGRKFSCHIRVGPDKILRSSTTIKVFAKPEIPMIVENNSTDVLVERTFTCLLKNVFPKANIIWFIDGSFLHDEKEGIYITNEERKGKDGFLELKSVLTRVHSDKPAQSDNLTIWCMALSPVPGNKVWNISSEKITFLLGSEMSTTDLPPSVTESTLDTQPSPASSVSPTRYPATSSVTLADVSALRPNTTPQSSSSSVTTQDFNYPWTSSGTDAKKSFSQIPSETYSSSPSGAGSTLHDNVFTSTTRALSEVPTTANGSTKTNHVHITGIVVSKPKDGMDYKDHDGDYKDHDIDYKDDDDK
Assay: ELISA, cyno-CD96-3xFLAG coated
PROPERTY: EC50 (nM)
Dear colleague, please return just the value in nM, with no unit written.

Consider the reported EC50 for these binders:
h1721-003 (antibody, V domains shown, Only variable regions are tied to this name; also called M721-003) VH: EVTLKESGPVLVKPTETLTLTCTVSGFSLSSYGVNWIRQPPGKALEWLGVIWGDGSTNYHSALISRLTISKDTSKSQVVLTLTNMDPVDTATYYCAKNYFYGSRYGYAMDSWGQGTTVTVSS VL: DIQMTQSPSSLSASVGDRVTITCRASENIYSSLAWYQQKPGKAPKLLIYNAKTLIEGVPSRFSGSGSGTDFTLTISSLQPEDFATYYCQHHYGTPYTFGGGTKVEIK    0.037
h1722-018 (antibody, V domains shown) VH: EVQLVQSGAEVKKPGSSVKVSCKASGGTFSDYWMHWVRQAPGQGLEWIGMLHPQSGTTSFNEKFKIRVTITADKSTSTAYMELSSLRSEDTAVYYCASDYSGPFAYWGQGTLVTVSS VL: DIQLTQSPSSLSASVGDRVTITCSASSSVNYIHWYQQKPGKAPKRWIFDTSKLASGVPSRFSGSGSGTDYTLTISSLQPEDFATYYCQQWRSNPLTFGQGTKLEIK    0.051

EC50 reported for this binder ch1722 (antibody, human IgG4 S228P, kappa, V domains shown, also called chi722; chimeric antibody corresponding to m1722) VH: QVQLQQPGAELVKPGTSVKLSCKASGNTFIDYWMHWVKQRPGQGLEWIGMLHPNSGTTSFNEKFKIKTTLTIDKSSSTAYMQLSSLTSEDSAIYYCASDYSGPFAYWGQGTLVTVSA VL: QIVLTQSPGIMSAFPGEKVTMTCSASSSVNYIHWYQQKSGTSPKRWIFDTSKLASGVPARFSGSGSGTSYSLTISSMEAEDAATYYCQQWRSNPLTFGAGTKLELKR : 0.05
